- EXPERIMENTAL PROTOCOL: Henry's Law constant (molality scale); of the first substance listed, at infinite dilution; mn = molality of the nth substance listed, in mol/kg
- DETAILS: 331.15 K; Liquid; Chromatography; m1 = 0
PARAMETER: Henry's Law constant (kPa·kg/mol)
Give just the number in kPa·kg/mol; leave the unit off.

I would be grateful if you could share the reported Henry's Law constant for ClC(Cl)=C(Cl)Cl [tetrachloroethene] + O .
5600

Data request, read-out Henry's Law constant, for Cc1cccc(C)c1 [1,3-dimethylbenzene] + O
1810

* * *

- EXPERIMENTAL PROTOCOL: Henry's Law constant (molality scale); of the first substance listed, at infinite dilution; mn = molality of the nth substance listed, in mol/kg
- DETAILS: 326.15 K; Liquid; Chromatography; m1 = 0
PARAMETER: Henry's Law constant (kPa·kg/mol)
Record the value in kPa·kg/mol, omitting the unit from your answer.

>>> measured_number("CC(C)(C)c1ccccc1 [(1,1-dimethylethyl)benzene] + O")
3330
>>> measured_number("c1ccccc1 [benzene] + O")
1410
>>> measured_number("Clc1cccc(Cl)c1 [1,3-dichlorobenzene] + O")
967
>>> measured_number("Cc1ccc(C)cc1 [1,4-dimethylbenzene] + O")
2090
>>> measured_number("Clc1ccc(Cl)c(Cl)c1 [1,2,4-trichlorobenzene] + O")
730

For the next question, use this molecule.
What does the data say about its Henry's Law constant? Entry: ClCC(Cl)(Cl)Cl [1,1,1,2-tetrachloroethane] + O
832

* * *

- EXPERIMENTAL PROTOCOL: Henry's Law constant (molality scale); of the first substance listed, at infinite dilution; mn = molality of the nth substance listed, in mol/kg
- DETAILS: 310.15 K; Liquid; Chromatography; m1 = 0
PARAMETER: Henry's Law constant
Record the result as a number with its unit.

Examples with answers:
>>> result("ClCC(Cl)(Cl)Cl [1,1,1,2-tetrachloroethane] + O")
"388 kPa·kg/mol"
>>> result("Cc1ccccc1 [toluene] + O")
"316 kPa·kg/mol"
>>> result("c1ccccc1 [benzene] + O")
"1190 kPa·kg/mol"
>>> result("CC(C)(C)c1ccccc1 [(1,1-dimethylethyl)benzene] + O")
"1020 kPa·kg/mol"
>>> result("C=Cc1ccccc1 [styrene] + O")
"382 kPa·kg/mol"
>>> result("ClCC(Cl)Cl [1,1,2-trichloroethane] + O")
"148 kPa·kg/mol"
>>> result("Clc1cccc(Cl)c1 [1,3-dichlorobenzene] + O")
"309 kPa·kg/mol"
>>> result("Clc1ccc(Cl)c(Cl)c1 [1,2,4-trichlorobenzene] + O")
"148 kPa·kg/mol"
>>> result("BrCCBr [1,2-dibromoethane] + O")
"130 kPa·kg/mol"

API: the following record is the query input.
For Clc1ccc(Cl)cc1 [1,4-dichlorobenzene] + O , what is its reported Henry's Law constant?
263 kPa·kg/mol

* * *

- EXPERIMENTAL PROTOCOL: Henry's Law constant (molality scale); of the first substance listed, at infinite dilution; mn = molality of the nth substance listed, in mol/kg
- DETAILS: 331.15 K; Liquid; Chromatography; m1 = 0
A collection of compounds and their measured Henry's Law constant
# output: bare number, implied unit kPa·kg/mol

>>> measured_number("CCC(C)c1ccccc1 (stereo not drawn) [(1-methylpropyl)benzene] + O")
2310

Returns the measured Henry's Law constant for the input compound. Input: Cc1ccc(C)c(C)c1 [1,2,4-trimethylbenzene] + O
1390

Consider the compound Cc1ccccc1 [toluene] + O and give its measured Henry's Law constant.
3030

* * *

- EXPERIMENTAL PROTOCOL: Henry's Law constant (molality scale); of the first substance listed, at infinite dilution; mn = molality of the nth substance listed, in mol/kg
- DETAILS: 331.15 K; Liquid; Chromatography; m1 = 0
The reader will find reported Henry's Law constant values listed item by item below.
The response must be a number in kPa·kg/mol with no trailing unit.

Some solved entries appear below for comparison.
>>> measured_number("Clc1ccc(Cl)c(Cl)c1 [1,2,4-trichlorobenzene] + O")
425
>>> measured_number("CC(C)c1ccccc1 [isopropylbenzene] + O")
3130
>>> measured_number("ClCC(Cl)(Cl)Cl [1,1,1,2-tetrachloroethane] + O")
1090

Consider the additional compound presented here.
Field request: Henry's Law constant | item: Clc1ccc(Cl)cc1 [1,4-dichlorobenzene] + O
686
